As shown below, each of these molecules has a reported normalised cell viability value.
Test system: NCI-H1944
assayProtocol: normalised cell viability (NPI; 0 = phenylarsine oxide control, 1 = DMSO control) (fraction of DMSO control); higher = more viable cells (less compound toxicity)
conditionDescription: glucocorticoid arm: vehicle; compound 5 µM; 6 days
In all, about 1,900 compounds were measured (“normalised cell viability (NPI; 0 = phenylarsine oxide control, 1 = DMSO control)”: median about 1, lowest 2% from about 0.039 on). Shown is part of a subset that was picked to be rich in the lowest values.

- molecule: "Cc1cc(N)c2ccccc2[n+]1CCCCCCCCCC[n+]1c(C)cc(N)c2ccccc21 [Dequalinium chloride hydrate]"
  normalised cell viability: 0.00579
- molecule: "NC[C@@H](O)c1ccc(O)c(O)c1 [L(-)-Norepinephrine bitartrate]"
  normalised cell viability: 0.977
- molecule: "NC(N)=N[C@@H](CCC(=O)O)C(=O)O [alpha-Guanidinoglutaric acid]"
  normalised cell viability: 1

* * *

Test system: NCI-H1944;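 further: CTB read-out in 384-well plates, triplicate wells, NPI normalised per plate against 1 µM phenylarsine oxide (0) and 0.1% DMSO (1) controls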
assayProtocol: normalised cell viability (NPI; 0 = phenylarsine oxide control, 1 = DMSO control) (fraction of DMSO control); NCI-H1944 is a non-small cell lung cancer line; higher = more viable cells (less compound toxicity)
conditionDescription: glucocorticoid arm: hydrocortisone 2.75 uM pre-treated 2 days and continued; compound 1 µM; 6 days
Over roughly 1,900 compounds, “normalised cell viability (NPI; 0 = phenylarsine oxide control, 1 = DMSO control)” has its median near 1; the lowest 2% begin near 0.039. The sample holds the lowest values, similar compounds and a random draw of the others, so the mix is not that of the screen.
As shown below, each of these molecules has a reported normalised cell viability value.
recordedEndpoint: normalised cell viability

- molecule: "CS(=O)(=O)N1CCc2c(-c3cnc(N)nc3)nc(N3CCOCC3)nc21"
  recordedEndpoint: "normalised cell viability"
  valueReported: 0.552
- molecule: "Nc1nc(Cl)nc2c1ncn2[C@@H]1O[C@H](COP(=O)(O)OP(=O)(O)OP(=O)(O)O)[C@H](O)C1O (stereo partly specified) [2-Chloroadenosine triphosphate tetrasodium]"
  recordedEndpoint: "normalised cell viability"
  valueReported: 0.988
- molecule: "C#C[C@]1(O)CC[C@H]2[C@@H]3CCC4=Cc5oncc5C[C@]4(C)[C@H]3CC[C@@]21C"
  recordedEndpoint: "normalised cell viability"
  valueReported: 0.991
- molecule: "Cc1cc(C)c(/C=C2\\C(=O)Nc3ccccc32)[nH]1"
  recordedEndpoint: "normalised cell viability"
  valueReported: 1.07
- molecule: "CCCC(CCC)C(=O)NO [Valproic acid hydroxamate]"
  recordedEndpoint: "normalised cell viability"
  valueReported: 1.01
- molecule: "CC(C)N(CCCNC(=O)Nc1ccc(C(C)(C)C)cc1)C[C@H]1O[C@@H](n2ccc3c(N)ncnc32)[C@H](O)[C@@H]1O"
  recordedEndpoint: "normalised cell viability"
  valueReported: 0.984
- molecule: "CNc1nc(Nc2cnn(C3CCN(C4COC4)CC3F)c2Cl)ncc1C(F)(F)F (stereo unspecified)"
  recordedEndpoint: "normalised cell viability"
  valueReported: 1.04
- molecule: "COc1cc2c(cc1C(F)(F)F)N(C(=O)Nc1cc(F)cc(-c3cccnc3)c1)CC2"
  recordedEndpoint: "normalised cell viability"
  valueReported: 1.02
- molecule: "CCOC(=O)C1=CN(Cc2ccccc2)C=C(C(=O)OCC)C1c1ccccc1"
  recordedEndpoint: "normalised cell viability"
  valueReported: 1
- molecule: "Cn1ccc2cc3c(cc21)CCN3C(=O)Nc1cccnc1"
  recordedEndpoint: "normalised cell viability"
  valueReported: 1.05
- molecule: "NC(CCCP(=O)(O)O)C(=O)O (racemic) [(±)-2-Amino-5-phosphonopentanoic acid]"
  recordedEndpoint: "normalised cell viability"
  valueReported: 0.991
- molecule: "CC(C)C[C@H](NC(=O)[C@H](Cc1ccccc1)NC(=O)c1cnccn1)B(O)O [Bortezomib]"
  recordedEndpoint: "normalised cell viability"
  valueReported: 0.669
- molecule: "COCC[n+]1c2c(n(Cc3cnccn3)c1C)C(=O)c1ccccc1C2=O"
  recordedEndpoint: "normalised cell viability"
  valueReported: 0.00552
- molecule: "CSC(=N)NCCC[C@H](N)C(=O)O [S-Methyl-L-thiocitrulline acetate]"
  recordedEndpoint: "normalised cell viability"
  valueReported: 1.01
- molecule: "Cc1nc(N=Nc2ccc(C(=O)O)cc2)c(COP(=O)(O)O)c(C=O)c1O"
  recordedEndpoint: "normalised cell viability"
  valueReported: 1.01
- molecule: "Nc1ncn([C@H]2C[C@H](O)[C@@H](CO)O2)c(=O)n1 [5-Aza-2'-deoxycytidine; Decitabine]"
  recordedEndpoint: "normalised cell viability"
  valueReported: 1.07
- molecule: "CCCCCCCCCCCCCCCc1cccc(O)c1C(=O)O"
  recordedEndpoint: "normalised cell viability"
  valueReported: 1.01
- molecule: "O=C(/C=C/c1cccc(S(=O)(=O)Nc2ccccc2)c1)NO"
  recordedEndpoint: "normalised cell viability"
  valueReported: 1.02
- molecule: "Cc1nn(-c2ccccc2)c(C)c1C=NN1CCN(Cc2ccccc2)CC1"
  recordedEndpoint: "normalised cell viability"
  valueReported: 1.02
- molecule: "CC(C)NCC(O)COc1ccc(CC(N)=O)cc1 (racemic) [(±)-Atenolol]"
  recordedEndpoint: "normalised cell viability"
  valueReported: 1
- molecule: "Nc1nc(Cl)nc2c1ncn2[C@@H]1O[C@H](CO)[C@@H](O)[C@@H]1F"
  recordedEndpoint: "normalised cell viability"
  valueReported: 0.341
- molecule: "Nc1ncn([C@H]2C[C@H](O)[C@@H](CO)O2)c(=O)n1 [5-Aza-2'-deoxycytidine]"
  recordedEndpoint: "normalised cell viability"
  valueReported: 1.07
- molecule: "Cc1cc2c(cc1Cl)N(C(=O)Nc1cccc3ncccc13)CC2"
  recordedEndpoint: "normalised cell viability"
  valueReported: 1
- molecule: "Cl.N[C@@H](CCC(=O)O)C(=O)O [L-Glutamic acid hydrochloride]"
  recordedEndpoint: "normalised cell viability"
  valueReported: 1.01
- molecule: "COc1ccc2c3n(c(=NC(=O)c4cccnc4)nc2c1OC)CCN3"
  recordedEndpoint: "normalised cell viability"
  valueReported: 0.901
- molecule: "OCc1ccc(-c2ccc(-c3ccc(CO)s3)o2)s1"
  recordedEndpoint: "normalised cell viability"
  valueReported: 1.02

Source: the supplement of paper PMC8285479
